# System: recombinant NL4-3 virus (Renilla luciferase in nef, Gag P373S; NLRluc) in MT-2 cells
# method_description: whole plant or invertebrate
# Type: cell-based, HIV
# applied_conditions: Renilla, NL43, luciferase activity in cells infected for 4-5 days with NLRluc recombinants, serial dilutions of inhibitor; class symbols (key in Table 1); read-out: EC50
Structures can show the parent of a compound that is named as a salt.
readout: EC50

Answered examples (5):
>  <compound>
C=C(C)[C@@H]1CC[C@]2(NCCN3CCC(S(C)(=O)=O)CC3)CC[C@]3(C)[C@H](CC[C@@H]4[C@@]5(C)CC=C(c6ccc(C(=O)O)cc6)C(C)(C)[C@@H]5CC[C@]43C)[C@@H]12

>  <assay_system>
recombinant NL4-3 virus (Renilla luciferase in nef, Gag P373S; NLRluc) in MT-2 cells

>  <EC50>
< 100 nM

$$$$
>  <compound>
C=C(C)[C@@H]1CC[C@]2(NCCN3CCNCC3)CC[C@]3(C)[C@H](CC[C@@H]4[C@@]5(C)CC=C(c6ccc(C(=O)O)cc6)C(C)(C)[C@@H]5CC[C@]43C)[C@@H]12

>  <assay_system>
recombinant NL4-3 virus (Renilla luciferase in nef, Gag P373S; NLRluc) in MT-2 cells

>  <EC50>
< 100 nM

$$$$
>  <compound>
C=C(C)[C@@H]1CC[C@]2(NC(=O)Cc3cccnc3)CC[C@]3(C)[C@H](CC[C@@H]4[C@@]5(C)CC=C(c6ccc(C(=O)O)cc6)C(C)(C)[C@@H]5CC[C@]43C)[C@@H]12

>  <assay_system>
recombinant NL4-3 virus (Renilla luciferase in nef, Gag P373S; NLRluc) in MT-2 cells

>  <EC50>
< 100 nM

$$$$
>  <compound>
CC(C)[C@@H]1CC[C@]2(N(CCN(C)C)CCN(C)C)CC[C@]3(C)[C@H](CC[C@@H]4[C@@]5(C)CC[C@H](c6ccc(C(=O)O)cc6)C(C)(C)[C@@H]5CC[C@]43C)[C@@H]12

>  <assay_system>
recombinant NL4-3 virus (Renilla luciferase in nef, Gag P373S; NLRluc) in MT-2 cells

>  <EC50>
< 100 nM

$$$$
>  <compound>
C=C(C)[C@@H]1CC[C@]2(NC(=O)N3CCNC(C(=O)O)C3)CC[C@]3(C)[C@H](CC[C@@H]4[C@@]5(C)CC=C(c6ccc(C(=O)O)cc6)C(C)(C)[C@@H]5CC[C@]43C)[C@@H]12 (mixture of isomers)

>  <assay_system>
recombinant NL4-3 virus (Renilla luciferase in nef, Gag P373S; NLRluc) in MT-2 cells

>  <EC50>
< 100 nM

$$$$

Field: next compound
// field: EC50; key: C=C(C)[C@@H]1CC[C@]2(NCCN3CCS(=O)(=O)CC3)CC[C@]3(C)[C@H](CC[C@@H]4[C@@]5(C)CC=C(c6ccc(C(=O)O)c(F)c6)C(C)(C)[C@@H]5CC[C@]43C)[C@@H]12 [Example A2, HCl] ; value = < 100 nM

----------
# Tested on: recombinant NL4-3 virus (Renilla luciferase in nef, Gag P373S; NLRluc) in MT-2 cells
# method_description: whole plant or invertebrate
# Format: cell-based, HIV
# applied_conditions: Renilla, NL43, luciferase activity in cells infected for 4-5 days with NLRluc recombinants, serial dilutions of inhibitor; class symbols (key in Table 1); read-out: EC50
readout: EC50

>  <compound>
C=C(C)[C@@H]1CC[C@]2(NC(=O)N3CCNC(=O)C3CC(=O)O)CC[C@]3(C)[C@H](CC[C@@H]4[C@@]5(C)CC=C(c6ccc(C(=O)O)cc6)C(C)(C)[C@@H]5CC[C@]43C)[C@@H]12 (some centres unmarked)

>  <value_measured>
< 100 nM

$$$$

Field: next compound
// field: EC50; key: `C=C(C)[C@@H]1CC[C@]2(NCC(=O)NC)CC[C@]3(C)[C@H](CC[C@@H]4[C@@]5(C)CC=C(c6ccc(C(=O)O)cc6)C(C)(C)[C@@H]5CC[C@]43C)[C@@H]12` ; value = < 100 nM

----------
# Test system: recombinant NL4-3 virus (Renilla luciferase in nef, Gag P373S; NLRluc) in MT-2 cells
# method_description: whole plant or invertebrate
# Assay type: cell-based, HIV
# applied_conditions: Renilla, NL43, luciferase activity in cells infected for 4-5 days with NLRluc recombinants, serial dilutions of inhibitor; class symbols (key in Table 1); read-out: EC50
Measured EC50, listed per entry.

>  <molecule>
C=C(C)[C@@H]1CC[C@]2(NC(=O)NC3(C(=O)O)CC3)CC[C@]3(C)[C@H](CC[C@@H]4[C@@]5(C)CC=C(c6ccc(C(=O)O)cc6)C(C)(C)[C@@H]5CC[C@]43C)[C@@H]12

>  <EC50>
> 100 nM

$$$$

// field: EC50; key: `C=C(C)[C@@H]1CC[C@]2(NC(=O)N(CCN3CCS(=O)(=O)CC3)CCN3CCS(=O)(=O)CC3)CC[C@]3(C)[C@H](CC[C@@H]4[C@@]5(C)CC=C(c6ccc(C(=O)O)cc6)C(C)(C)[C@@H]5CC[C@]43C)[C@@H]12` ; value = < 100 nM

// field: EC50; key: `C=C(C)[C@@H]1CC[C@]2(NC(=O)NCC(C)(C)N3CCOCC3)CC[C@]3(C)[C@H](CC[C@@H]4[C@@]5(C)CC=C(c6ccc(C(=O)O)cc6)C(C)(C)[C@@H]5CC[C@]43C)[C@@H]12` ; value = < 100 nM

// field: EC50; key: C=C(C)[C@@H]1CC[C@]2(NC(=O)N3CCN(C(=O)OC(C)(C)C)CC3CC(=O)O)CC[C@]3(C)[C@H](CC[C@@H]4[C@@]5(C)CC=C(c6ccc(C(=O)O)cc6)C(C)(C)[C@@H]5CC[C@]43C)[C@@H]12 (stereo partly shown) ; value = < 100 nM

----------
# Tested on: recombinant NL4-3 virus (Renilla luciferase in nef, Gag P373S; NLRluc) in MT-2 cells
# method_description: whole plant or invertebrate
# Type: cell-based, HIV
# applied_conditions: Renilla, NL43, luciferase activity in cells infected for 4-5 days with NLRluc recombinants, serial dilutions of inhibitor; class symbols (key in Table 1); read-out: EC50
pEC50: −log10 of the molar value.
Measured pEC50, listed per entry.

Answered examples (2):
>  <compound>
C=C(C)[C@@H]1CC[C@]2(NCCNC(C)=O)CC[C@]3(C)[C@H](CC[C@@H]4[C@@]5(C)CC=C(c6ccc(C(=O)O)cc6)C(C)(C)[C@@H]5CC[C@]43C)[C@@H]12 [Example 195]

>  <assay_system>
recombinant NL4-3 virus (Renilla luciferase in nef, Gag P373S; NLRluc) in MT-2 cells

>  <pEC50>
> 7.00

$$$$
>  <compound>
C=C(C)[C@@H]1CC[C@]2(NC(=O)N(C)CCn3ccnc3)CC[C@]3(C)[C@H](CC[C@@H]4[C@@]5(C)CC=C(c6ccc(C(=O)O)cc6)C(C)(C)[C@@H]5CC[C@]43C)[C@@H]12 [Example 25]

>  <assay_system>
recombinant NL4-3 virus (Renilla luciferase in nef, Gag P373S; NLRluc) in MT-2 cells

>  <pEC50>
> 7.00

$$$$

Field: next compound
// field: pEC50; key: C=C(C)[C@@H]1CC[C@]2(NC(=O)NCC(=O)O)CC[C@]3(C)[C@H](CC[C@@H]4[C@@]5(C)CC=C(c6ccc(C(=O)O)cc6)C(C)(C)[C@@H]5CC[C@]43C)[C@@H]12 [Example 16] ; value = > 7.00
